Biological target: DNA polymerase α isolated from the bovine thymus (Bos taurus, UniProt A0AAA9TD94)
Construct: isolated from the bovine thymus and purified with an antibody column; from tissue; host or cells: bovine thymus
Sequence (A0AAA9TD94 1-1441): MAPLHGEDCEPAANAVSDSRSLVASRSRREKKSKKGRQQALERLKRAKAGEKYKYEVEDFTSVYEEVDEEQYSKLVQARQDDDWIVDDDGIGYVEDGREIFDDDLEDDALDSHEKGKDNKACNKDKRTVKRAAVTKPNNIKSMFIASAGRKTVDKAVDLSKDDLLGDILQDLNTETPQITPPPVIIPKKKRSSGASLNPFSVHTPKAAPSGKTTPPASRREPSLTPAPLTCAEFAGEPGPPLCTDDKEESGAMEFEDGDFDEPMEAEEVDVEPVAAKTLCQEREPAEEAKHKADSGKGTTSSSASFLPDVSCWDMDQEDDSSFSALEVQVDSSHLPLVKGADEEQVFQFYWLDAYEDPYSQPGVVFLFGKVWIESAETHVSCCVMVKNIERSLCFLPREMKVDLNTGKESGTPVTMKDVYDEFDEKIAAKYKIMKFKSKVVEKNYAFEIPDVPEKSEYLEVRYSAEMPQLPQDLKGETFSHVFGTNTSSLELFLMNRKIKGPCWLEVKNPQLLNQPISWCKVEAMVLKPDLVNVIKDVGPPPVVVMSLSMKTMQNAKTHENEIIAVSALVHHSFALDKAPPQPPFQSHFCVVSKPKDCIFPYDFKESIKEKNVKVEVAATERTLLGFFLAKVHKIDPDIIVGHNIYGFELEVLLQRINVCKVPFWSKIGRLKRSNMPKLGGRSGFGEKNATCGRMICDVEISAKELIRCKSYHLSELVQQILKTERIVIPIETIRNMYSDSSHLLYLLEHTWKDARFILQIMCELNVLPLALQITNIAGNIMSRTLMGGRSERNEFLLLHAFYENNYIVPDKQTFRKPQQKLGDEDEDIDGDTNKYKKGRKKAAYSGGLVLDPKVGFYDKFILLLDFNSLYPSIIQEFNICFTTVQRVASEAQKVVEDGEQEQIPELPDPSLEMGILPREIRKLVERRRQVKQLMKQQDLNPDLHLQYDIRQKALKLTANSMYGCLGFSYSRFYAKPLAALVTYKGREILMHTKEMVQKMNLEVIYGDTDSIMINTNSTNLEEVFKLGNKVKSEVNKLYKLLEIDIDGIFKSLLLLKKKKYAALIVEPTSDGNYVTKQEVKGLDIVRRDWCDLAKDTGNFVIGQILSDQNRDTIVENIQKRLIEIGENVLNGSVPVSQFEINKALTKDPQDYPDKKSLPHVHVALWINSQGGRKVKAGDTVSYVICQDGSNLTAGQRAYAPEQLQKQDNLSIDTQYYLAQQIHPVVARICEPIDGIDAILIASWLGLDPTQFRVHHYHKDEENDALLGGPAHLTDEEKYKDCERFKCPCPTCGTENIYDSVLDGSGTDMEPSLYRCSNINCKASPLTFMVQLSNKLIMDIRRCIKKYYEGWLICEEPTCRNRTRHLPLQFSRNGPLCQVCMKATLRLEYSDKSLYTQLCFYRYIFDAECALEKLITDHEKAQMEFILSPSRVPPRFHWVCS
Assay: Inhibitory effect against DNA polymerase α
Assay type: biochemical
Settings: 0.05 U enzyme, 37° C., 60 minutes; mixture of S- and R-configurations; read-out: IC50, Inhibition Activity against DNA Polymerase α (converted)
Experimental Readout: IC50 (µM)
The answer is to be given in µM; state only the numeric part.

>>> experimental_value("CCCCCCCCCCCCCCCCCC(=O)OCC(O)CO[C@H]1O[C@H](CS(=O)(=O)O)[C@@H](O)[C@H](O)[C@H]1O (mixture of isomers) [SQAG 6]")
4.1
>>> experimental_value("CCCCCCCCCCCCCCCCCCCCCCCCCC(=O)OCC(O)CO[C@H]1O[C@H](CS(=O)(=O)O)[C@@H](O)[C@H](O)[C@H]1O (mixture of isomers) [SQAG 14]")
1.43

// next item, IC50 requested
[in] Indicate its recorded IC50; the compound in question is CCCCCCCCCCCCCCCCCC(=O)OCC(O)CO[C@@H]1O[C@H](CS(=O)(=O)O)[C@@H](O)[C@H](O)[C@H]1O (mixture of isomers) [SQAG 10]
[out] 5.13
